Values from a melting point compilation (Tetko et al.; mined from patent text by program, amines drawn as free bases though some values may be those of a salt)

propertyName: melting point

QUERY: Reported melting point, compound CC(C)(O)c1ccoc1C(=O)c1[nH]c2cc(Cl)ccc2c1CC(=O)O : ____
RESULT: 229 to 230 °C

QUERY: Reported melting point, compound CN(CC(O)C(N)C(=O)c1cccc(C(F)(F)F)c1)c1ccc(Cl)cc1 (stereo not given) : ____
RESULT: 128 to 132 °C

QUERY: Reported melting point, compound Cc1ccc2nc(C(O)[C@H](C)NC(=O)OCc3ccccc3)oc2c1 (stereo not given in full) : ____
RESULT: 108 to 109 °C

QUERY: Reported melting point, compound CSc1nc(Cl)c(-c2ccc(C)cc2)c(Cl)n1 : ____
RESULT: 74 to 78 °C

QUERY: Reported melting point, compound CCC1=C(C(=O)OC)C(c2ccc(C)cc2)C(C#N)=C(CC(C)(C)C)N1 (stereo not given) : ____
RESULT: 126 °C
